Reference source for all entries: patent US20230365542A1

Target: 5-HT2AR (Homo sapiens)
Construct: expressed in transfected cells; host or cells: Flp-In 293 T-Rex (tetracycline inducible)
Sequence (P28223 whole entry): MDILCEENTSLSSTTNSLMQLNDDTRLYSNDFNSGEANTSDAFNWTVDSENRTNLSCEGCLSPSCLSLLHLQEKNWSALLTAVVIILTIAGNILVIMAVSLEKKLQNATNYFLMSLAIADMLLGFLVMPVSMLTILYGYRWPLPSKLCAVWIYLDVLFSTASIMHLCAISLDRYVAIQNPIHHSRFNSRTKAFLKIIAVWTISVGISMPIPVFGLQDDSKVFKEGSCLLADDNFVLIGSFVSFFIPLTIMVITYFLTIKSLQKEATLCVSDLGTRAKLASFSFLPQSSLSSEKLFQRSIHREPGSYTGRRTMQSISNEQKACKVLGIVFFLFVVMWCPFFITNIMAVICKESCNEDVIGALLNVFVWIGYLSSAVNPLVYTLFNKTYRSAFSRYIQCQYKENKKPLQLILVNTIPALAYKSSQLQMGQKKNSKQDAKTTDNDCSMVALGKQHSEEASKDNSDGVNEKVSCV
Test: Calcium flux assay (FLIPR, Fluo-4), 5-HT2AR stable cell line
Assay type: cell-based
Conditions: value in parentheses
quantity: 5-HT2AR Rmax ± S.E.M

Here are 4 molecules together with their reported answers.
molecule-smiles	result
CCCCCN1CC(c2cncc(Cl)c2)=C[C@@H](C)C1	(40.2%
C[C@@H]1C=C(c2c[nH]c3ncccc23)CN(CC2CC2)C1	(25.0%
CCCCN1CC(c2cncc(Cl)c2)=C[C@@H](C)C1	(25.0%
C[C@H]1C=C(c2c[nH]c3ncccc23)CN(CCCc2cnn(C)c2)C1	(40.2%

Moving on to the next molecule.
Kindly note: 5-HT2AR (Homo sapiens), "C[C@H]1C=C(c2c[nH]c3ncccc23)CN(C)C1" , 5-HT2AR Rmax ± S.E.M value reported: (7.1%
